target.entity: human CB2 receptor (Homo sapiens, UniProt P34972)
Construct: expressed in transfected cells; host or cells: human embryonic kidney (HEK) cells, Semliki Forest Virus system, membrane preparation
Sequence (P34972 whole entry): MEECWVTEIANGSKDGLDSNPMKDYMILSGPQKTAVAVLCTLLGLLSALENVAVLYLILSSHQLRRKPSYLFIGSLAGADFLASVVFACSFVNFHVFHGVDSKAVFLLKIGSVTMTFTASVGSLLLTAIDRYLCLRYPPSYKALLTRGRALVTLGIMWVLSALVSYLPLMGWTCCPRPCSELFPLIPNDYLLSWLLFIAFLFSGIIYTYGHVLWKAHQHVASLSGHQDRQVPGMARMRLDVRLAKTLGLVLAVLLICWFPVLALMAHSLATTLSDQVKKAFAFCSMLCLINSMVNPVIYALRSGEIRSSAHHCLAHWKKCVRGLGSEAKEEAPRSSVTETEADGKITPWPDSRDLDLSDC
assay.text: CB2 receptor affinity ([3H]-CP-55,940 displacement, HEK cell membranes)
Type: binding
run.conditions: displacement of [3H]-CP-55,940 at 10 μM
Protocol: CB1 and CB2 Receptor Affinity The affinity of the compounds of the invention for cannabinoid CB2 receptors was determined using membrane preparations of human embryonic kidney (HEK) cells in which the human CB2 receptor is transiently transfected using a Semliki Forest Virus system in conjunction with [^3H]-CP-55,940 as radioligand. […] Radioactivity on the filter was measured by scintillation counting. […]
measurement.label: CB2 receptor affinity [% inhibition @ 10 μM] (% inhibition)
Quick reminder: number only, in % inhibition, skip the unit.

# compound, unit.label, test.result
measured = [
    ("O=C(Nc1cccnn1)c1cnc(OCC(F)(F)F)c(C2CCCC2)c1 [Example 9]", "% inhibition", 9),
    ("O=C(Nc1cccnc1)c1cnc(OCC(F)(F)F)c(C2CCCC2)c1 [Example 8]", "% inhibition", 13),
    ("O=C(Nc1ccncn1)c1cnc(OCC(F)(F)F)c(C2CCCCC2)c1 [Example 21]", "% inhibition", "−4"),
    ("O=C(Nc1cncnc1)c1cnc(OCC(F)(F)F)c(C2CCCC2)c1 [Example 22]", "% inhibition", "−11"),
    ("O=C(NCc1nc(C(F)(F)F)no1)c1cnc(OCC(F)(F)F)c(C2=CCOCC2)c1 [Example 5]", "% inhibition", "−2"),
]

Requested field: CB2 receptor affinity [% inhibition @ 10 μM]. Item: O=C(NCc1nc(C(F)(F)F)no1)c1cnc(OCC(F)(F)F)c(C2=CCCCC2)c1 [Example 3]
−1

Then this compound: O=C(NCc1nc(C(F)(F)F)no1)c1cnc(OCC(F)(F)F)c(C2CCCC2)c1 [Example 11]
−3

What about O=C(NCc1csc(C2CC2)n1)c1cnc(OCC(F)(F)F)c(C2CCCCC2)c1 [Example 16] ?
5

// next record O=C(Nc1cccnc1)c1cnc(OCC(F)(F)F)c(C2=CCCCC2)c1 [Example 1]
5
